- Test system: human embryonic stem cell derived neural stem cells (NSCs)
- procedure.details: Neural Stem Cell Proliferation Assay (neurogenesis assay, ATP levels by CellTiterGlo)
- Assay type: cell-based
- condition.summary: 96 h, compound concentration at which 150% activity of control (100%) is reached, NSC proliferation by ATP level after 4 days incubation, dose response 8 μM to 8 nM
observed.property: log10 EC (150% of control) (log10 of the value in µM)

[[record]]
compound = "N#Cc1cccc(-c2cc(C#N)cc3cc4n(c23)CCNC4=O)c1 [Example 194]"
assayed_target = "human embryonic stem cell derived neural stem cells (NSCs)"
data_value = 0.03

[[record]]
compound = "Cc1c2n(c3c(-c4ccc(Cl)c(F)c4)cc(C#N)cc13)CCCNC2=O [Example 297]"
assayed_target = "human embryonic stem cell derived neural stem cells (NSCs)"
data_value = -1.02

[[record]]
compound = "Cc1c2n(c3c(-c4cncnc4)cc(C#N)cc13)CCNC2=O [Example 283]"
assayed_target = "human embryonic stem cell derived neural stem cells (NSCs)"
data_value = 0.21

[[record]]
compound = "O=C1NCCn2c1cc1cc(F)c(F)c(-c3ccc(Cl)cc3)c12 [Example 45]"
assayed_target = "human embryonic stem cell derived neural stem cells (NSCs)"
data_value = -1.12

[[record]]
compound = "O=C1NCCCn2c1cc1cc(F)cc(-c3ccc(F)cc3)c12 [Example 17]"
assayed_target = "human embryonic stem cell derived neural stem cells (NSCs)"
data_value = -1.30

[[record]]
compound = "O=C1NCCCn2c1cc1cc(F)cc(-c3ccc(Cl)cc3)c12 [Example 29]"
assayed_target = "human embryonic stem cell derived neural stem cells (NSCs)"
data_value = -1.52

[[record]]
compound = "N#Cc1cc(-c2ccc(F)c(F)c2F)c2c(c1)cc1n2CCNC1=O [Example 202]"
assayed_target = "human embryonic stem cell derived neural stem cells (NSCs)"
data_value = -1.34

[[record]]
compound = "O=C1NCCn2c1cc1cc(F)cc(-c3ccc(Cl)cc3)c12 [Example 23]"
assayed_target = "human embryonic stem cell derived neural stem cells (NSCs)"
data_value = -1.72

[[record]]
compound = "COc1ncc(-c2cc(F)cc3c(C)c4n(c23)CCNC4=O)cn1 [Example 156]"
assayed_target = "human embryonic stem cell derived neural stem cells (NSCs)"
data_value = -0.96

[[record]]
compound = "Cc1c2n(c3c(-c4ccc(F)cc4)cc(Cl)cc13)CCNC2=O [Example 66]"
assayed_target = "human embryonic stem cell derived neural stem cells (NSCs)"
data_value = -1.33

[[record]]
compound = "N#Cc1cc(-c2ccc(F)c(F)c2)c2c(c1)c(C(F)(F)F)c1n2CCNC1=O [Example 182]"
assayed_target = "human embryonic stem cell derived neural stem cells (NSCs)"
data_value = -0.54

[[record]]
compound = "N#Cc1cc(-c2ccc(F)c(F)c2)c2c(c1)cc1n2CCCNC1=O [Example 217]"
assayed_target = "human embryonic stem cell derived neural stem cells (NSCs)"
data_value = -0.29

[[record]]
compound = "N#Cc1cc(-c2cccc(Cl)c2)c2c(c1)cc1n2CCNC1=O [Example 193]"
assayed_target = "human embryonic stem cell derived neural stem cells (NSCs)"
data_value = -0.49

[[record]]
compound = "O=C1NCCn2c1cc1cc(F)c(F)c(-c3ccc(F)c(F)c3)c12 [Example 44]"
assayed_target = "human embryonic stem cell derived neural stem cells (NSCs)"
data_value = -0.52

